# Lookup of reported IC50 keyed by entry
tested-target: calcium channels (Oryctolagus cuniculus)
Construct: from tissue; host or cells: heart of female New Zealand white rabbits, membrane fraction (42,000×g pellet)
method: Inhibition of nitrendipine binding (3H-nitrendipine displacement, rabbit heart membranes)
Set-up: species or system rabbit (New Zealand white)
particulars: Table II, 90 min, 4° C.

| compound | IC50 / nM |
| --- | --- |
| CC1=C(C(=O)OCCN(C)c2ccccc2)C(c2ccccc2C(F)(F)F)C2=C(CCCCS2(=O)=O)N1 (stereo not drawn) [4 2-CF3C6 H4 CH2 CH2 NCH3 C6 H5] | 46 |
| CC1=C(C(=O)OCCN(C)Cc2ccccc2)C(c2ccccc2Cl)C2=C(CCCCS2(=O)=O)N1 (stereo not drawn) [4 2-ClC6 H4] | 220 |
| CC1=C(C(=O)OCCN(C)Cc2ccccc2)C(c2cccc([N+](=O)[O-])c2)C2=C(CCCCCS2(=O)=O)N1 (stereo not drawn) [5 3-NO2C6 H4] | 45 |
| CC1=C(C(=O)OCCCN(C)Cc2ccccc2)C(c2cccc([N+](=O)[O-])c2)C2=C(CCCCS2(=O)=O)N1 (stereo not drawn) [4 3-NO2 C6 H4 CH2 CH2 CH2 NCH3 CH2 C6 H5] | 290 |
| CC1=C(C(=O)OCCN(C)c2ccccc2)C(c2c(F)c(F)c(F)c(F)c2F)C2=C(CCCCCS2(=O)=O)N1 (stereo not drawn) [5 C6 F5 CH2 CH2 NCH3 C6 H5] | 18 |
| CC1=C(C(=O)OCCO)C(c2cccc([N+](=O)[O-])c2)C2=C(CCCCS2(=O)=O)N1 (stereo not drawn) [4 3-NO2C6 H4 CH2 CH2 OH] | 2400 |

====

tested-target: calcium channels (Oryctolagus cuniculus, UniProt P15381)
Construct: from tissue; host or cells: heart of female New Zealand white rabbits, membrane fraction (42,000×g pellet)
Sequence (P15381 whole entry, other chains not shown): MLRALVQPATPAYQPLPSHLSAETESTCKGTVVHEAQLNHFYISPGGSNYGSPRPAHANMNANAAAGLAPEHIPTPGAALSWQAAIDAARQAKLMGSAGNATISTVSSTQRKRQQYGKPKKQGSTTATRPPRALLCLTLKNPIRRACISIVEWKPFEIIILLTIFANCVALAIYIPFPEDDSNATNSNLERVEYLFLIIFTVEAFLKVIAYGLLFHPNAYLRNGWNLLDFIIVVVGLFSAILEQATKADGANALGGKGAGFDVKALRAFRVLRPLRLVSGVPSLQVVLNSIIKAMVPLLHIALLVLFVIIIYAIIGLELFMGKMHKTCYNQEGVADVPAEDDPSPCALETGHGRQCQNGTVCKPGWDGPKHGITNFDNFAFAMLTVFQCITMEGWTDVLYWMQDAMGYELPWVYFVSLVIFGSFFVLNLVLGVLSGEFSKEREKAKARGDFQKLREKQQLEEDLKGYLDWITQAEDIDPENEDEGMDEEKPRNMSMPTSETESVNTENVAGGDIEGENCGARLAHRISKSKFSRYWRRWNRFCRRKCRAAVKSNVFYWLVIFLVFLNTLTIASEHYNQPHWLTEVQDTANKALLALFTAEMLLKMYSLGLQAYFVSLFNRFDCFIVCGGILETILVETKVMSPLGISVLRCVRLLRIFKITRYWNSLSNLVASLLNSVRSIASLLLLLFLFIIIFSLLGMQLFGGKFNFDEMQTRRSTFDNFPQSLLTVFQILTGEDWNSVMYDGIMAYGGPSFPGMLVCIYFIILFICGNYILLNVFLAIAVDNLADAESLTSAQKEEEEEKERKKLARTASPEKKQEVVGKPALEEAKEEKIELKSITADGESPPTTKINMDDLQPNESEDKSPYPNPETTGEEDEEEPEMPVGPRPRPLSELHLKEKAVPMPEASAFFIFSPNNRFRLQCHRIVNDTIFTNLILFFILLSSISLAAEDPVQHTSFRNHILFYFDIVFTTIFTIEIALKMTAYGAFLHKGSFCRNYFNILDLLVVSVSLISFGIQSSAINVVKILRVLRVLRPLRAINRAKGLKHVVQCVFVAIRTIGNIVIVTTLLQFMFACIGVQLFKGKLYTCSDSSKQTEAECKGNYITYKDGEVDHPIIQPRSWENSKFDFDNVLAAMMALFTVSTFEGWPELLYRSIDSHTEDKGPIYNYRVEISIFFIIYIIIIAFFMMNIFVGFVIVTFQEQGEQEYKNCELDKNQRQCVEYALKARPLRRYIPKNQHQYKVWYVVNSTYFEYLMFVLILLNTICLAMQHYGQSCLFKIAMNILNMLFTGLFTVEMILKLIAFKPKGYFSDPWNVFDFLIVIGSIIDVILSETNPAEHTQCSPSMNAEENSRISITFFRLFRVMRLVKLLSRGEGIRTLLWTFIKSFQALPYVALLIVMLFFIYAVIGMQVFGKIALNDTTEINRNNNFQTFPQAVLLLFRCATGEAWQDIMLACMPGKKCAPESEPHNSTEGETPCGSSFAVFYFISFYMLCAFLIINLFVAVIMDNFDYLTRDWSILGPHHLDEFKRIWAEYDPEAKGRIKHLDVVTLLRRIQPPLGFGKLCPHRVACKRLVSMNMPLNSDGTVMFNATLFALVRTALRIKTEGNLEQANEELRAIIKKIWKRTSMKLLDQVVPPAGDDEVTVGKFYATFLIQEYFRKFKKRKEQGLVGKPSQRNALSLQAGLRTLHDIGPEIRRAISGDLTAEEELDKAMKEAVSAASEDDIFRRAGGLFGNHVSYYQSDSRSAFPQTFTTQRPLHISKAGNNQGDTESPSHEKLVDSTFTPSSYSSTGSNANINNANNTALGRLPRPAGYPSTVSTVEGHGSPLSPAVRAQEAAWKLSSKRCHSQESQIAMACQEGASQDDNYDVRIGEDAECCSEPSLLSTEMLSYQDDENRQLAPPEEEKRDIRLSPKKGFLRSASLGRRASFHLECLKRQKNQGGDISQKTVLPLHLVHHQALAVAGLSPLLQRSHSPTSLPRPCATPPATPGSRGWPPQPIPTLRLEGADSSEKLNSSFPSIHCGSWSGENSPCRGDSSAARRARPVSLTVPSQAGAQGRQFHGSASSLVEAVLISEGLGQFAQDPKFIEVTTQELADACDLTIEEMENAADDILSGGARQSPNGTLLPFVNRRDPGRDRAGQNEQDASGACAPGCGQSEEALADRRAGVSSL
Sequence (P13806 27-960 partner limits assumed, other chains not shown): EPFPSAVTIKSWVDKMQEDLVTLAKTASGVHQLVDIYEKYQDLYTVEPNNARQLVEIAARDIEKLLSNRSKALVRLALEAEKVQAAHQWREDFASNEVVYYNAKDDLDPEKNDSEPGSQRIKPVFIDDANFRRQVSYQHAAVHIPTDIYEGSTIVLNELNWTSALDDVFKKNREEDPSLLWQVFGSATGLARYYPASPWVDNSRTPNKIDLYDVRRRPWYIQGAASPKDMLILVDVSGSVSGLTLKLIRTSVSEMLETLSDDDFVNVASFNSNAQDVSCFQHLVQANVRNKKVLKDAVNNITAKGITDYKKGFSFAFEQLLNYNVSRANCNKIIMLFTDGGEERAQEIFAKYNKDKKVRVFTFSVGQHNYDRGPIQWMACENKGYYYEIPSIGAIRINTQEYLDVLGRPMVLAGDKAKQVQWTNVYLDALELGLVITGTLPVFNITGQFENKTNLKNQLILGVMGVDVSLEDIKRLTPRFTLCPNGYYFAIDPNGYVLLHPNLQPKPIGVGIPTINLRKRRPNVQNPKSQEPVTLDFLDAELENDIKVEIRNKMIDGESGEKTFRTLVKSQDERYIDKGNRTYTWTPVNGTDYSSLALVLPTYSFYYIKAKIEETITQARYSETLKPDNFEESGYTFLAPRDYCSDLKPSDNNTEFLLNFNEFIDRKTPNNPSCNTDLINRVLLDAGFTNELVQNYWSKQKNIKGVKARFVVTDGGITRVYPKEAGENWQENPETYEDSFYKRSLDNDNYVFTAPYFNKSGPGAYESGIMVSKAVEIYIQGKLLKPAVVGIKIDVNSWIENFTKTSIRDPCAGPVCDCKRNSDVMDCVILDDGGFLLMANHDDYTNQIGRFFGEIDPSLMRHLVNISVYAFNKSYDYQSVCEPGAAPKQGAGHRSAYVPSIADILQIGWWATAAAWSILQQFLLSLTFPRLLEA
Sequence (P13806 961-1106 partner limits assumed, other chains not shown): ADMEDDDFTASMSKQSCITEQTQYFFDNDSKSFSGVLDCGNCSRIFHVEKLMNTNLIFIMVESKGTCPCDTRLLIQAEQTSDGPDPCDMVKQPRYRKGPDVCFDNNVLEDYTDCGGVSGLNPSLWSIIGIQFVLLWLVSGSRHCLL
method: Inhibition of nitrendipine binding (3H-nitrendipine displacement, rabbit heart membranes)
Parameters: species or system rabbit (New Zealand white)
particulars: Table I, 90 min, 4° C.
# Lookup of reported IC50 keyed by entry

| compound | tested-target | measure-unit | IC50 |
| --- | --- | --- | --- |
| COC(=O)C1=C(C)NC2=C(C1c1cccc(Cl)c1)S(=O)(=O)CC2 (stereo not shown) [2 CH3 3-ClC6 H4] | calcium channels (Oryctolagus cuniculus, UniProt P15381) | nM | 930 |
| CCOC(=O)C1=C(C)NC2=C(C1c1c(F)c(F)c(F)c(F)c1F)S(=O)(=O)CC2 (stereo not shown) [2 CH2 CH3 C6 F5] | calcium channels (Oryctolagus cuniculus, UniProt P15381) | nM | 560 |
| CCOC(=O)C1=C(C)NC2=C(C1c1cccc([N+](=O)[O-])c1)S(=O)(=O)CCC2 (stereo not shown) [3 CH2 CH3 3-NO2C6 H4] | calcium channels (Oryctolagus cuniculus, UniProt P15381) | nM | 170 |
| COC(=O)C1=C(C)NC2=C(C1c1ccccc1[N+](=O)[O-])S(=O)(=O)CC2 (stereo not shown) [2 CH3 2-NO2C6 H4] | calcium channels (Oryctolagus cuniculus, UniProt P15381) | nM | 1350 |

====

Documented inhibition at 0.1 µM across a set of compounds
Tested on: trachealis muscle
method: Inhibition of calcium dependent smooth muscle contraction (KCl-challenged trachea)
Format: cell-based, dog
particulars: Canis lupus familiaris; Table II; concentration 0.1 μM; read-out: Inhibition Trachea Muscle Contraction % Inhibition
measurement-kind: inhibition at 0.1 µM (%)

| compound | measure-unit | assay-value |
| --- | --- | --- |
| CC1=C(C(=O)OCCN(C)Cc2ccccc2)C(c2ccccc2Cl)C2=C(CCCCS2(=O)=O)N1 (stereo not shown) | % | 57 |
| CC1=C(C(=O)OCCc2ccccn2)C(c2cccc([N+](=O)[O-])c2)C2=C(CCCCCS2(=O)=O)N1 (stereo not shown) [5 3-NO2C6 H4 drawing 10] | % | 53 |
| CC1=C(C(=O)OCCN(C)Cc2ccccc2)C(c2ccccc2OC(F)F)C2=C(CCCCCS2(=O)=O)N1 (stereo not shown) | % | 76 |
| CC1=C(C(=O)OCCN(C)Cc2ccccc2)C(c2cc([N+](=O)[O-])ccc2Cl)C2=C(CCCCS2(=O)=O)N1 (stereo not shown) | % | 38 |
| CC1=C(C(=O)OCCN(C)Cc2ccccc2)C(c2ccccc2OC(F)F)C2=C(CCCCS2(=O)=O)N1 (stereo not shown) | % | 54 |
| CC1=C(C(=O)OCCN(C)Cc2ccccc2)C(c2cccc(C(F)(F)F)c2Cl)C2=C(CCCCCS2(=O)=O)N1 (stereo not shown) | % | 57 |
| CC1=C(C(=O)OCCN(C)Cc2ccccc2)C(c2c(F)cccc2Cl)C2=C(CCCCS2(=O)=O)N1 (stereo not shown) | % | 50 |
